subject.of.test: T1, Recombinant human PSGL-1(ECD)-hFc1 (R&D Systems, Cat. 3345-PS) (human, UniProt Q14242 42-305)
T1 construct: Bought; Gln42-Val295 counted on AAC50061; also called PSGL-1-Fc; PSGL-1-hFc1 chimera; not shown: human IgG1 Fc, Pro100-Lys330
T1 sequence: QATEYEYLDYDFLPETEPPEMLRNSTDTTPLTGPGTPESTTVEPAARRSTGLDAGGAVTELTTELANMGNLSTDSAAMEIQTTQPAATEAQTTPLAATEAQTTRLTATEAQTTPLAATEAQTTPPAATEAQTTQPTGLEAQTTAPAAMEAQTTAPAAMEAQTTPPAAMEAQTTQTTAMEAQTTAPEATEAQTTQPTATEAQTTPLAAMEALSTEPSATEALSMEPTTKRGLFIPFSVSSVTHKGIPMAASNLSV
test.description: blocking ELISA vs P-selectin-Fc
The following binders are listed with their measured % max Block values.

binder	units	% max Block
19N05 (antibody, V domains shown, From mouse immunisation; only variable domains given) VH: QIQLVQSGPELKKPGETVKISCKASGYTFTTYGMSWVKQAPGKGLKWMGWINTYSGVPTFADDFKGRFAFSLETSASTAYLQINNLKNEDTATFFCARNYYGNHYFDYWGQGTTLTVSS VL: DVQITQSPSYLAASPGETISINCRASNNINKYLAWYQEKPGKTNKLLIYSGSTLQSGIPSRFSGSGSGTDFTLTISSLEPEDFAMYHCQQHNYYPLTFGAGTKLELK	%	0
18L13 (antibody, V domains shown, Mouse hybridoma mAb; only variable domains given) VH: EVQLQQSGAELVRPGASVKLSCTASGFNIKDDFMHWVKQRPEQGLEWIGRIDPASGKTEYVPKFQDKATLTADTSSNTAYLQLSSLTSEDTAVYYCARRIAYWGQGTLVTVSA VL: DVVMTQTPLTLSVTIGQPASISCKSSQSLLHSNGKTYLNWLLQRPGQSPKLLIYLVSKLESGLPDRFSGSGSGTDFSLKISRVEAEDLGVYYCLQTTHFPQTFGGGTKLEIK	%	0
43B6 (antibody, V domains shown, Control anti-PSGL-1 mAb, recombinant; only variable domains given; also called 43B3) VH: EVQLQQSGPDLVKPGALVKISCKASGYSFTAYYIHWVKQSHGKSLEWIGRVNPNTGGTSYNPKFKGKAILNVDKSSSTAYMELRSLTSEDSAVYYCARSGSPYYRYDDWGQGTTLTVSS VL: ENVLTQSPAIMSASPGEKVTMTCRASSTVNSTYLHWFQQKSGASPKLWIYGSSNLASGVPARFSGSGSGTSYSLTISSVEAEDAATYYCQQYSGYPLTFGAGTTLELK	%	100
19I01 (antibody, V domains shown, From mouse immunisation; only variable domains given; also called 19101) VH: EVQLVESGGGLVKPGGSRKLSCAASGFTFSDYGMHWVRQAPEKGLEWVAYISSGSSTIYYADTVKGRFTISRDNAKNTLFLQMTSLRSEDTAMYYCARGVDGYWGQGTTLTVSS VL: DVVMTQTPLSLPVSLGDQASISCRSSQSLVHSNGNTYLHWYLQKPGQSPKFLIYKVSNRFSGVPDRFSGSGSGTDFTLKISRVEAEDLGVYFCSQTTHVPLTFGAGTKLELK	%	100
5E12 (antibody, V domains shown, Mouse hybridoma mAb; only variable domains given) VH: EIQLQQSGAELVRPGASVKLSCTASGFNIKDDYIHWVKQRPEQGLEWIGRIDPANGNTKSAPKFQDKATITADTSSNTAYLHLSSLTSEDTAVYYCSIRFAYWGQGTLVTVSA VL: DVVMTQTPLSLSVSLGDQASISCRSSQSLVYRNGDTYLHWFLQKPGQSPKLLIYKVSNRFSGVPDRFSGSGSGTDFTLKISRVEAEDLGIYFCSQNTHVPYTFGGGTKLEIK	%	0
